Target: Human BCL-XL protein (N-terminal HiBiT tagged BCL-XL in HT1080 cells) (Homo sapiens, UniProt Q07817)
Construct: expressed in transfected cells; host or cells: HT-1080 (ATCC CCL-121), stably transduced with lentivirus pLV-UBC-N-HiBiT-BCL-XL-PGK-puro and selected with puromycin
Sequence (Q07817 whole entry): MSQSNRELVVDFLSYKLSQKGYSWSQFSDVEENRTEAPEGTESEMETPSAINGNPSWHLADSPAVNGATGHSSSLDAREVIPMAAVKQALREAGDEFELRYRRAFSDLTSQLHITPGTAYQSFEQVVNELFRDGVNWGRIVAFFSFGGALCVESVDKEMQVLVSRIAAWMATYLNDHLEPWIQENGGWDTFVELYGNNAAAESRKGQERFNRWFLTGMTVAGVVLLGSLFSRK
Assay: HiBiT based degradation assay
Type: cell-based
Settings: BCL-XL degradation normalized with DMSO control; HT1080 cells expressing HiBiT-BCL-XL; 6 h
Procedure: Human BCL-XL protein coding open reading frame fused with N-terminal HiBiT coding sequence was synthesized from Integrated DNA Technologies (IDT). […] HT1080 cells expressing N-terminal HiBiT tagged BCL-XL were dispensed into a 384-well plate pre-spotted with compounds at varying concentrations. […] After incubation, luminescence was read on a PHERAstar FSX Plate Reader (BMG). […]
endpoint_name: Ymin (6 h)

INSERT INTO results (compound, endpoint_name, measured_value) VALUES
  ('Cc1c(OCCCCC2CCN(CC(=O)Nc3ccc4c(C5CCC(=O)NC5=O)nn(C)c4c3)CC2)cccc1-c1ccc(N2CCc3cccc(C(=O)Nc4nc5ccccc5s4)c3C2)nc1C(=O)O (stereo not shown)', 'Ymin (6 h)', 'B (50% ≤ Ymin < 70%)'),
  ('Cc1cc(OCCCN2CCN(CC(=O)N3CCN(c4cccc5c(C6CCC(=O)NC6=O)nn(C)c45)CC3)CC2)ccc1-c1ccc(N2CCc3cccc(C(=O)Nc4nc5ccccc5s4)c3C2)nc1C(=O)O (stereo not shown)', 'Ymin (6 h)', 'B (50% ≤ Ymin < 70%)'),
  ('Cc1c(Oc2ccc(CCCN3CCN(c4ccc5c(C6CCC(=O)NC6=O)nn(C)c5c4)CC3)cc2)cccc1-c1ccc(N2CCc3cccc(C(=O)Nc4nc5ccccc5s4)c3C2)nc1C(=O)O (stereo not shown)', 'Ymin (6 h)', 'B (50% ≤ Ymin < 70%)'),
  ('Cc1c(Oc2ccc(CC(F)(F)CN3CCN(c4ccc5c(C6CCC(=O)NC6=O)nn(C)c5c4)CC3)cc2)cccc1-c1ccc(N2CCc3cccc(C(=O)Nc4nc5ccccc5s4)c3C2)nc1C(=O)O (stereo not shown)', 'Ymin (6 h)', 'C (Ymin ≥ 70%)');

Record Cc1c(Oc2ccccc2CCCC(=O)Nc2cccc3c(C4CCC(=O)NC4=O)nn(C)c23)cccc1-c1ccc(N2CCc3cccc(C(=O)Nc4nc5ccccc5s4)c3C2)nc1C(=O)O (stereo not shown) , field Ymin (6 h): C (Ymin ≥ 70%)

Entry Cc1c(Oc2ccc(CC(F)(F)CN3CCN(c4cccc5c(C6CCC(=O)NC6=O)nn(C)c45)CC3)cc2)cccc1-c1ccc(N2CCc3cccc(C(=O)Nc4nc5ccccc5s4)c3C2)nc1C(=O)O (stereo not shown) , Ymin (6 h) reported as B (50% ≤ Ymin < 70%)

Sample Cc1c(OCCCN2CCN(CCOc3ccc4c(C5CCC(=O)NC5=O)nn(C)c4c3)CC2)cccc1-c1ccc(N2CCc3cccc(C(=O)Nc4nc5ccccc5s4)c3C2)nc1C(=O)O (stereo not shown) ; Ymin (6 h) observed: B (50% ≤ Ymin < 70%)

Entry Cc1c(OCCOC2CCN(CC(=O)Nc3cccc4c(C5CCC(=O)NC5=O)nn(C)c34)CC2)cccc1-c1ccc(N2CCc3cccc(C(=O)Nc4nc5ccccc5s4)c3C2)nc1C(=O)O (stereo not shown) — recorded Ymin (6 h) = B (50% ≤ Ymin < 70%)

The compound Cc1c(Oc2ccc(CCC(=O)N3CCN(c4ccc5c(C6CCC(=O)NC6=O)nn(C)c5c4)CC3)cc2)cccc1-c1ccc(N2CCc3cccc(C(=O)Nc4nc5ccccc5s4)c3C2)nc1C(=O)O (stereo not shown) showed Ymin (6 h) equal to C (Ymin ≥ 70%)

The measured Ymin (6 h) associated with Cc1c(OCCCCCCCCN2CCN(c3ccc4c(C5CCC(=O)NC5=O)nn(C)c4c3)CC2)cccc1-c1ccc(N2CCc3cccc(C(=O)Nc4nc5ccccc5s4)c3C2)nc1C(=O)O (stereo not shown) reads B (50% ≤ Ymin < 70%)

###

Target: Human BCL-XL protein (N-terminal HiBiT tagged BCL-XL in HT1080 cells) (Homo sapiens, UniProt Q07817)
Construct: expressed in transfected cells; host or cells: HT-1080 (ATCC CCL-121), stably transduced with lentivirus pLV-UBC-N-HiBiT-BCL-XL-PGK-puro and selected with puromycin
Assay: HiBiT based degradation assay
Format: cell-based
Conditions: BCL-XL degradation; HT1080 cells expressing HiBiT-BCL-XL; 24 h; read-out: EC50 (24 h)
# key: entry, value: DC50

// solved cases for DC50 follow
INSERT INTO measurements (molecule, measured_value) VALUES
  ('Cc1c(OCC(F)(F)CC2CCN(CC(=O)Nc3cccc4c(C5CCC(=O)NC5=O)nn(C)c34)CC2)cccc1-c1ccc(N2CCc3cccc(C(=O)Nc4nc5ccccc5s4)c3C2)nc1C(=O)O (stereo not shown) [Compound 170]', '100 to 1000 nM'),
  ('Cc1c(O[C@H]2CC[C@H]([C@H](C)CCN3CCN(c4ccc5c(C6CCC(=O)NC6=O)nn(C)c5c4)CC3)CC2)cccc1-c1ccc(N2CCc3cccc(C(=O)Nc4nc5ccccc5s4)c3C2)nc1C(=O)O (single isomer, unassigned) [Compound 310a]', '< 100 nM'),
  ('Cc1c(OCC(F)(F)CC2CCN(CC(=O)Nc3ccc4c(C5CCC(=O)NC5=O)nn(C)c4c3)CC2)cccc1-c1ccc(N2CCc3cccc(C(=O)Nc4nc5ccccc5s4)c3C2)nc1C(=O)O (stereo not shown) [Compound 181]', '< 100 nM');

Record Cc1c(O[C@H]2CC[C@H](CCCCN3CCN(c4ccc5c(C6CCC(=O)NC6=O)nn(C)c5c4)[C@@H](C(F)(F)F)C3)CC2)cccc1-c1ccc(N2CCc3cccc(C(=O)Nc4nc5ccccc5s4)c3C2)nc1C(=O)O (stereo partly shown) [Compound 339a] . Reported DC50: < 100 nM

###

Target: Human BCL-XL protein (N-terminal HiBiT tagged BCL-XL in HT1080 cells) (Homo sapiens)
Construct: expressed in transfected cells; host or cells: HT-1080 (ATCC CCL-121), stably transduced with lentivirus pLV-UBC-N-HiBiT-BCL-XL-PGK-puro and selected with puromycin
Test: HiBiT based degradation assay
Type: cell-based
Settings: BCL-XL degradation normalized with DMSO control; HT1080 cells expressing HiBiT-BCL-XL; 24 h
endpoint_name: Ymin (24 h)

INSERT INTO measurements (compound, endpoint_name, measured_value) VALUES
  ('Cc1c(O[C@H]2CC[C@H](CC[C@@H](C)CN3CCN(c4ccc5c(C6CCC(=O)NC6=O)nn(C)c5c4)CC3)CC2)cccc1-c1ccc(N2CCc3cccc(C(=O)Nc4nc5ccccc5s4)c3C2)nc1C(=O)O (single isomer, unassigned) [Compound 308a]', 'Ymin (24 h)', 'A (Ymin < 50%)'),
  ('Cc1c(OC[C@H](C)CC2CCN(CC(=O)Nc3ccc4c(C5CCC(=O)NC5=O)nn(C)c4c3)CC2)cccc1-c1ccc(N2CCc3cccc(C(=O)Nc4nc5ccccc5s4)c3C2)nc1C(=O)O (single isomer, unassigned) [Compound 263a]', 'Ymin (24 h)', 'B (50% ≤ Ymin < 70%)'),
  ('Cc1c(OCCCN2CCN(CC(=O)Nc3ccc4c(C5CCC(=O)NC5=O)nn(C)c4c3)[C@H](C(F)(F)F)C2)cccc1-c1ccc(N2CCc3cccc(C(=O)Nc4nc5ccccc5s4)c3C2)nc1C(=O)O (stereo partly shown) [Compound 187a]', 'Ymin (24 h)', 'B (50% ≤ Ymin < 70%)'),
  ('Cc1c(O[C@H]2CC[C@H](CCCCN3CCC(Oc4cccc5c(C6CCC(=O)NC6=O)nn(C)c45)CC3)CC2)cccc1-c1ccc(N2CCc3cccc(C(=O)Nc4nc5ccccc5s4)c3C2)nc1C(=O)O (stereo partly shown) [Compound 327a]', 'Ymin (24 h)', 'A (Ymin < 50%)');

###

Target: Human BCL-XL protein (N-terminal HiBiT tagged BCL-XL in HT1080 cells) (Homo sapiens)
Construct: expressed in transfected cells; host or cells: HT-1080 (ATCC CCL-121), stably transduced with lentivirus pLV-UBC-N-HiBiT-BCL-XL-PGK-puro and selected with puromycin
Test: HiBiT based degradation assay
Format: cell-based
Conditions: BCL-XL degradation normalized with DMSO control; HT1080 cells expressing HiBiT-BCL-XL; 24 h
endpoint_name: Ymin (24 h)

INSERT INTO measurements (molecule, measured_value) VALUES
  ('Cc1c(O[C@H]2CC[C@H](CCCCN3CC[C@@H](c4ccc5c(C6CCC(=O)NC6=O)nn(C)c5c4)C3)CC2)cccc1-c1ccc(N2CCc3cccc(C(=O)Nc4nc5ccccc5s4)c3C2)nc1C(=O)O (single isomer, unassigned) [Compound 332b]', 'A (Ymin < 50%)'),
  ('Cc1c(OCCCN2CCN(CC(=O)N3CCN(c4cccc5c(C6CCC(=O)NC6=O)nn(C)c45)CC3)CC2)cccc1-c1ccc(N2CCc3cccc(C(=O)Nc4nc5ccccc5s4)c3C2)nc1C(=O)O (stereo not shown)', 'A (Ymin < 50%)'),
  ('Cc1c(OCCC2CCN(CC3CCN(c4cccc5c(C6CCC(=O)NC6=O)nn(C)c45)CC3)CC2)cccc1-c1ccc(N2CCc3cccc(C(=O)Nc4nc5ccccc5s4)c3C2)nc1C(=O)O (stereo not shown)', 'A (Ymin < 50%)'),
  ('Cc1c(O[C@H]2CC[C@H](CCCCN3CC[C@H](c4cccc5c(C6CCC(=O)NC6=O)nn(C)c45)C3)CC2)cccc1-c1ccc(N2CCc3cccc(C(=O)Nc4nc5ccccc5s4)c3C2)nc1C(=O)O (single isomer, unassigned) [Compound 321a]', 'A (Ymin < 50%)');
